// data source = ChEMBL document CHEMBL4616689

Target desc: von Hippel-Lindau disease tumor suppressor/Androgen receptor (Homo sapiens, UniProt P10275+P40337)
Sequence (P10275 whole entry, looked up): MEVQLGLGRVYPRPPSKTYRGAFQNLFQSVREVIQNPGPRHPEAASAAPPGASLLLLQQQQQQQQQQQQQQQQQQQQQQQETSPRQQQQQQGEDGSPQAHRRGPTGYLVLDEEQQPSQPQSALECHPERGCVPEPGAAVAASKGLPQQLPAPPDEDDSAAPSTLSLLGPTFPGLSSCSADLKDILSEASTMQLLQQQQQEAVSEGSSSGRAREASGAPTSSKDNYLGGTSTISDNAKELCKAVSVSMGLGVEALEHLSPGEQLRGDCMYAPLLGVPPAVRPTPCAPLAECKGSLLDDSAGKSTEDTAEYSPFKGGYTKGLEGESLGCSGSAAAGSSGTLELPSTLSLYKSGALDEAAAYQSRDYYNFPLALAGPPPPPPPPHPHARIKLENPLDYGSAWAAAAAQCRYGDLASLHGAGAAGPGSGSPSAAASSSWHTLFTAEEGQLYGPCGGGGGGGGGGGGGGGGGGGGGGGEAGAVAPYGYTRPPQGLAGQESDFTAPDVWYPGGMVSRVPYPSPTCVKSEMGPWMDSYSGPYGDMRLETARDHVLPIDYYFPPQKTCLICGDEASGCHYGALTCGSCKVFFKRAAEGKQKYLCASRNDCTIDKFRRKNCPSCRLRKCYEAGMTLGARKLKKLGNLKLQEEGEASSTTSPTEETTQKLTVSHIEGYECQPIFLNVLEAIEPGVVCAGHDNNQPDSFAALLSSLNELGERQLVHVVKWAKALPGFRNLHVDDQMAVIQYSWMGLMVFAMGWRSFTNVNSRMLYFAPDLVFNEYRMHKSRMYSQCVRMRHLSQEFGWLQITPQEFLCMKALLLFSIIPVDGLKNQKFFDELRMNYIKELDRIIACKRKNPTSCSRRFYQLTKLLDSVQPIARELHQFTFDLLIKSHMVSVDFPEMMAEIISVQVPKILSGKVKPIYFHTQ
Sequence (P40337 whole entry, looked up): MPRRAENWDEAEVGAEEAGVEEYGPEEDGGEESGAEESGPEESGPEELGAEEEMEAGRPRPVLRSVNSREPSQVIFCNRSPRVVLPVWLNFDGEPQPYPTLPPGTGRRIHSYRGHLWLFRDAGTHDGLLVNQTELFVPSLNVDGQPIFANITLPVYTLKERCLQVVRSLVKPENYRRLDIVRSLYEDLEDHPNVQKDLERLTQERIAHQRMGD
Protocol summary: Protac activity at E3 ubiquitin-protein ligase/AR in human VCAP cells assessed as induction of AR degradation after 24 hrs by ELISA relative to control
Type: cell-based
Reported endpoint: Emax

Answered cases to consult:
Mol	Emax
Cc1ncsc1-c1ccc(CNC(=O)[C@@H]2C[C@@H](O)CN2C(=O)[C@@H](NC(=O)COCCCOCCCCOc2ccc(N3C(=S)N(c4ccc(C#N)c(C(F)(F)F)c4)C(=O)C3(C)C)cc2F)C(C)(C)C)cc1	> 71%
Cc1ncsc1-c1ccc([C@H](C)NC(=O)[C@@H]2C[C@@H](O)CN2C(=O)[C@@H](NC(=O)COCCCOCCCCCOc2ccc(N3C(=S)N(c4ccc(C#N)c(C(F)(F)F)c4)C(=O)C3(C)C)cc2F)C(C)(C)C)cc1	< 70%
Cc1ncsc1-c1ccc(CNC(=O)[C@@H]2C[C@@H](O)CN2C(=O)[C@@H](NC(=O)COCCCOCCCCCOc2ccc(N3C(=S)N(c4ccc(C#N)c(C(F)(F)F)c4)C(=O)C3(C)C)cc2)C(C)(C)C)cc1	< 70%
Cc1ncsc1-c1ccc(CNC(=O)[C@@H]2C[C@@H](O)CN2C(=O)[C@@H](NC(=O)COCCCCOc2ccc(-c3ccc(N4C(=S)N(c5ccc(C#N)c(C(F)(F)F)c5)C(=O)C4(C)C)cc3)cc2)C(C)(C)C)cc1	> 71%

Next item in the queue.
## Task Look up Emax for this compound: "Cc1ncsc1-c1ccc(CNC(=O)[C@@H]2C[C@@H](O)CN2C(=O)[C@@H](NC(=O)COCCCOCCCCCOc2ccc(N3C(=S)N(c4cnc(C#N)c(C(F)(F)F)c4)C(=O)C3(C)C)cc2)C(C)(C)C)cc1"
## Result < 70%
